Listing of entries alongside the reported sfGFP reporter fluorescence.
B1: library; numbered along this chain (parent)
chain: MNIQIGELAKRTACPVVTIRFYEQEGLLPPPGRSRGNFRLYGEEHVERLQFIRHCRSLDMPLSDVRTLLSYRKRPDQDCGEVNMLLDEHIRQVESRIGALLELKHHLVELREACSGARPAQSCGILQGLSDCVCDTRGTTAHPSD

- Variants of: B1
- ASSAY_METHOD_TEXT: sfGFP reporter fluorescence (15 h) (µM FITC); higher = stronger transcriptional activation
- CONDITION_CONTEXT: library round: Round 1; ligand: 1 µM Pb
Output: the number by itself.

Check out these entries, answers already filled in.
MNIQIGELAKRTACPVVTIRFYEQEGLLPPPGRSRGNFRLYGEEHVERLQFIRHCRSLDMPLSDVRTLLSYRKRPDQDCGQVNMLLDEHIRQVESRIGALLELKHHLVELREACSGARPAQSCGILQGLSDCVCDTRGTTAHPSD [E81Q]
0.0673
MNIQIGELAKRTACPVVTIRFYEQEGLLPPPGRSRGNFRLYGEEHVERLQFIRHCRSLDMPLSDVRTLLSYRKRPDQDCGEVTMLLDEHIRQVESRIGALLELKHHLVELREACSGARPAQSCGILQGLSSCVCDTRGTTAHYSD [N83T D131S P143Y]
0.0782
MNIQIGELAKRTACPVVTIRFYEQEGLLLPPGRSRGNFRLYGEEHVERLQFIRHCRSLDMPLSDVRTLLSYRKRPDQDCGEVNMLLDEHIRQVESRIGALLELKHHLVELREACSGARPAQSCGILQGLSDCVCDTRGTTAHPSD [P29L]
0.0704
MNIQIGELAKRTACPVVTIRFYEQEGLLPPPGRSRGNFRLYGEEHVERLQFIRHCRSLDMPLSKVRTLLSYRKRPDQDCGEVNMLLDEHIRQVESRIGALLELEHHLVELREACSGARPAQSCGILQGLSDCVCDTRGTTAHPSD [D64K K104E]
0.31
MNIQIGELAKRTACPVVTIRFYEQEGLLPPPGRSRGNFRLYGEEHVERLQFIRHCRSLDLPLSKVRTLLSYRKRPDQDCGEVNMLLDEHIRQVESRIGALLELTHHLVELREACSGARPAQSCGILQGLSDCVCDTRGTTAHPSD [M60L D64K K104T]
1.14
MNIQIGELAKRTACPVVTIRFYEQEGLLPPPGRSRGNFRLYGEEHVERLQFIRHCRSLDMPLSAVRTLLSYRKRPDQDCGEVNMLLDEHIRQVESRIGALLELKHHLVELREACSGARPAQSCGILQGLSDCVMDTRGTTAHPSD [D64A C134M]
0.233
MNIQIGELAKRTACPVVTIRFYEQEGLLPPPARSRGNFRLYGEEHVERLQFIRHCRSLDMPLSDVRTLLSYRKRPDQDCGEVNMLLDEHIRQVESRIGALLELKHHLVELREACSGARPAQSCGILQGLSCCVCDTRGTTAHPSD [G32A D131C]
0.0707
MNIQIGELAKRTACPVVTIRFYEQEGLLPPPGRSRGNFRLYGEEHVERLQFIRHCRSLDMPLSKVRTLLSYRKRPDQDCGEVNMLLDEHCRQVESRIGALLELVHHLVELREACSGARPAQSCGILQGLSDCVCDTRGTTAHPSD [D64K I90C K104V]
0.341

query: Fill blank: measured sfGFP reporter fluorescence of the variant MNIQIGELAKRTACPVVTIRFYEQEGLLPPPGRSRGNFRLYGEEHVERLQFIRHCRSLDMNLSDVRTLLSYRKRPDQDCGEVNMLLDEHIRQVESRIGALLELKHHLMELREACSGARPAQSCGILQGLSDCVCDTRGTTAHPSD [P61N V108M] is ____.
result: 0.122

query: Fill blank: measured sfGFP reporter fluorescence of the variant MNIQIGELAKRTACAVVTIRFYEQEGLLPPPGRSRGNFRLYGEEHVERLQFIRHCRSLDMNLSDVRTLLSYRKRPDQDCGEVNMLLDEHIRQVESRIGALLELKHHLVELREACSGARPAQSCGILQGLSDCVCDTRGTTAHPSD [P15A P61N] is ____.
result: 0.12

query: Fill blank: measured sfGFP reporter fluorescence of the variant MNIQIGELAKRTACPVVTIRFYEQEGLLPPPGRSRGNFRLYGEEHVERLQFIRHCRSFDMNLSDVRTLLSYRKRPDQDCGEVNMLLDEHIRQVESRIGALLELKHHLVELREACSGARPAQSCGILQGLSDCVCDTRGTTAHPSD [L58F P61N] is ____.
result: 0.0952

query: Fill blank: measured sfGFP reporter fluorescence of the variant MNIQIGELAKRTACPVVTIRFYEQEGLLPPPGRSRGNFRLYGEEHVERLQFIRHCRSLDMPLSKVRTLLSYRKRPDQDCGEVSMLLDEHNRQVESRIGALLELKHHLVELREACSGARPAQSCGILQGLSDCVCDTRGTTAHPSD [D64K N83S I90N] is ____.
result: 0.223

query: Fill blank: measured sfGFP reporter fluorescence of the variant MNIQIGELAKRTACPVVTIRFYEQEGLLPPPGRSRGNFRLYGEEHVERLQFIRHCRSLDMPLSDVRTLLSYRKRPDQDCGEVTMLLDEHIRQVESRIGALLELKHHLVELRMACSGARPAQSCGILQGLSDCVCDTRGTTAHPSD [N83T E112M] is ____.
result: 0.0849

query: Fill blank: measured sfGFP reporter fluorescence of the variant MNIQIGELAKRTACPVVTIRFYEQEGLLPPPGRSRGNFRLYGEEHVERLQFIRHCRSLDMPLSDVRTLLSYRKRPDQDCGEVSMLLDEHIRQVESRIGALLELKHHLVELREACSGARPAQSCGILQGLSDCVCDTRGTTAHWSD [N83S P143W] is ____.
result: 0.102
